Data origin, for the record: patent US11154563B2

# targetOrTestSystem: immunoproteasome LMP7/B5i subunit (Homo sapiens, UniProt P20618+P28062)
# method: Caliper-based proteasome enzymatic activity assay, LMP7
# assayConditions: human recombinant immunoproteasome 0.3 nM, FAM-peptide substrate 1 μM, 3 h at rt
propertyName: IC50

# get_value(readout='IC50', item= CC(C)(C)/C=C(\C#N)C(=O)N1C[C@@H](F)C[C@@H]1COC(=O)N[C@@H](Cc1ccccc1)B(O)O [Example 102] )
0.7 nM

# get_value(readout='IC50', item= CC(C)(C)/C=C(\C#N)C(=O)N1CCCC[C@H]1COC(=O)N[C@@H](Cc1ccccc1)B(O)O [Example 9] )
14 nM

# get_value(readout='IC50', item= CC(C)(C)C=C(C#N)C(=O)N1CCC[C@@H]1COC(=O)N[C@@H](Cc1ccccc1)B(O)O [Example 10] )
1.8 nM

# get_value(readout='IC50', item= COC(=O)N1CCN(C(C)(C)C=C(C#N)C(=O)N2CCCC[C@@H]2COC(=O)N[C@@H](Cc2ccccc2)B(O)O)CC1 [Example 125] )
1.6 nM

====

# targetOrTestSystem: immunoproteasome LMP7/B5i subunit (Homo sapiens, UniProt P20618+P28062)
# method: Caliper-based proteasome enzymatic activity assay, LMP7
# assayConditions: human recombinant immunoproteasome 0.3 nM, FAM-peptide substrate 1 μM, 3 h at rt
propertyName: pIC50
// pIC50 is dimensionless: -log10 of concentration (M)

Sample records with pIC50:
# get_value(readout='pIC50', item= CC(C)(C=C(C#N)C(=O)N1C[C@@H]2C[C@@H]2[C@@H]1COC(=O)N[C@@H](Cc1coc2ccccc12)B(O)O)N1CCOCC1 )
9.30

# get_value(readout='pIC50', item= CC(C)(C)C=C(C#N)C(=O)N1CCCC[C@@H]1COC(=O)N[C@@H](Cc1coc2ccccc12)B(O)O )
9.22

# get_value(readout='pIC50', item= Cc1ccc(C[C@H](NC(=O)OC[C@H]2CCCCCN2C(=O)C(C#N)=CC(C)(C)C)B(O)O)cc1 )
8.04

# get_value(readout='pIC50', item= Cc1ccc(C[C@H](NC(=O)OC[C@H]2CCCCN2C(=O)C(C#N)=CC(C)(C)C)B(O)O)cc1 )
8.43

# get_value(readout='pIC50', item= CC(C)(C)C=C(C#N)C(=O)N1CCCC[C@@H]1COC(=O)N[C@@H](CCc1ccccc1)B(O)O )
8.01

Continuing:
# get_value(readout='pIC50', item= CC(C)(C=C(C#N)C(=O)N1CCCC[C@@H]1COC(=O)N[C@@H](Cc1coc2ccccc12)B(O)O)N1CCN(C2COC2)CC1 )
9.05

# get_value(readout='pIC50', item= CC(C)(C)C=C(C#N)C(=O)N1C[C@@H]2C[C@@H]2[C@H]1COC(=O)N[C@@H](Cc1ccccc1)B(O)O )
8.15

# get_value(readout='pIC50', item= CC(C)(C=C(C#N)C(=O)N1CCC[C@]1(C)COC(=O)N[C@@H](Cc1coc2ccccc12)B(O)O)N1CCOCC1 )
8.35

# get_value(readout='pIC50', item= CC(C)(C)/C=C(\C#N)C(=O)N1CC(F)(F)C[C@@H]1COC(=O)N[C@@H](Cc1ccccc1)B(O)O )
8.85
